Cited source: the supplement of paper PMC5908809

System: IMC-1 (IL-2 20 ng/mL);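 also: normalised to DMSO-only wells as negative and benzethonium chloride as positive control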
ASSAY NAME: percent inhibition of viability; higher = more inhibition
REPORTED CONDITIONS: 72 h; 1 nM
OBSERVATION TYPE: percent inhibition of viability (%)
Respond with the bare value in %.

Here's what some known entries look like.
[[record]]
compound = "O=C(/C=C/c1cccc(S(=O)(=O)Nc2ccccc2)c1)NO [Belinostat] (max concentration tested 10000 nM)"
observation_type = "percent inhibition of viability"
unit_name = "%"
value = 2.36

[[record]]
compound = "C#Cc1cccc(Nc2ncnc3cc(OC)c(OCCCCCCC(=O)NO)cc23)c1 [CUDC-101] (max concentration tested 10000 nM)"
observation_type = "percent inhibition of viability"
unit_name = "%"
value = -4.07

[[record]]
compound = "CN1CCC(CNc2ccc3ncc(-c4cccc(OC(F)(F)F)c4)n3n2)CC1 [SGI-1776] (max concentration tested 10000 nM)"
observation_type = "percent inhibition of viability"
unit_name = "%"
value = -2.53

[[record]]
compound = "CC(C)(C)c1cc(NC(=O)Nc2ccc(-c3cn4c(n3)sc3cc(OCCN5CCOCC5)ccc34)cc2)no1 [Quizartinib] (max concentration tested 1000 nM)"
observation_type = "percent inhibition of viability"
unit_name = "%"
value = -4.91


Supply reported percent inhibition of viability belonging to this compound: NC(=O)N1CCC(CC(=O)N2CCC([C@H]3c4ncc(Br)cc4CCc4cc(Cl)cc(Br)c43)CC2)CC1 [Lonafarnib] (max concentration tested 10000 nM)
-4.85

For the compound Nc1cc(C(F)(F)F)c(-c2cc(N3CCOCC3)nc(N3CCOCC3)n2)cn1 [Buparlisib] (max concentration tested 10000 nM) , give its measured percent inhibition of viability value.
-4.05
